The measurements presented in this section are drawn from patent US20250313612A1.

Recorded pKd values for a group of binders are listed next.
- test_system: T1, RSV F ectodomain stabilized in the postfusion conformation (F ΔFP), subtype B (Respiratory syncytial virus subtype B, UniProt P13843 26-109; P13843 147-524)
- T1 construct: extracellular domain; trimer; also called Postfusion subtype B
- assay_comment: BLI, IgG on AHQ sensors, 100 nM antigen
pKd: −log10 of the molar value.
parameter_measured: pKd

binder="ADI-14560 (antibody, V domains shown, IgG; also called Antibody Number 120) VH: QVQLVQSGPELKKPGESLKISCKASGYSFTSFWIAWVRQMPGKGLEFLGIIYPGDADTRYSPSFQGQVTISADKSINTAYLQWNNLKASDTAMYYCARQTTMTPDAFDLWGQGTTVTVSS VL: EIVLTQSPATLSLSPGERATISCRASQSVSSYLAWYQQKPGQAPRLLIYEASDRATGTPARFSGSGSGTDFTLTISSLEPEDFAVYYCQQRSNWGVGTFGQGTKVEIK" val=9.48
binder="ADI-14534 (antibody, V domains shown, IgG; also called Antibody Number 94) VH: EVQLVESGGGVVQPGRSLRLSCAVSGFTFSNFGMHWVRQAPGKGLEWVAAISYDGRKRFQADSVKGRFTISRDNLKNTLNLQMNSLKTEDTAVYYCAKSSRLLDWLYNMDFWGQGTTVTVSS VL: SYVLTQPPSVSVAPGKTARITCGGNILGSSSVHWFQQKAGQAPVLVIYYDSDRPSGIPERFSGSHSGDTATLTISRVEVGDEADYYCQVWDNSNSQGVFGGGTQLTVL" val=9.03
